System: SF-539 CNS
Test: NCI-60 one-dose screen, 48 h
Conditions: 10 µM unless noted
Compounds without any hit were thinned out: in the full panel of roughly 83,000, 20% have a hit. The source made the active and inactive calls. The calls were made as follows: active = growth percent below 10; inactive = the rest.
The categories you may choose from are yes = active, no = inactive

Enquiry: Please let me know the test result on file for NC(=O)C1(Nc2ccc(Br)cc2)CCCC1 .
Return: no

Enquiry: Please let me know the test result on file for C=C1CC[C@@]2(C#N)[C@H]3[C@H](CC[C@@H]2C)[C@@H](C)C[C@@H](CC(C)(C)C#N)[C@H]13 .
Return: no

Enquiry: Please let me know the test result on file for O=[N+]([O-])c1ccc(Oc2nc(Nc3ccc(O[C@H]4CO[C@H]5[C@@H]4OC[C@@H]5O)c(Cl)c3)ncc2F)c(Cl)c1 .
Return: no

Enquiry: Please let me know the test result on file for Cn1cc(-c2cc3ncnc(Nc4ccc(CC(=O)Nc5cc(C(C)(C)C)nn5C)cc4)c3s2)cn1 .
Return: no

Enquiry: Please let me know the test result on file for Cc1cccc2c(=O)c3c(sc12)c(NCc1ccccc1)nc1ccccc13 .
Return: no

Enquiry: Please let me know the test result on file for Oc1ccc(-c2nc3ccc4[nH]ncc4c3c3c2CCCC3)c2cccnc12 .
Return: yes

Enquiry: Please let me know the test result on file for COc1ccc(C2NC(=O)C(C#N)c3c2sc2c(F)cccc32)c(OC)c1 (stereo not given) .
Return: yes

Enquiry: Please let me know the test result on file for COc1ccc(CNC(=O)C(=O)[C@H](Cc2ccccc2)NC(=O)c2[nH]c3ccccc3c(=O)c2C)cc1 .
Return: no

Enquiry: Please let me know the test result on file for Cc1ccc(-c2nn(C)c(=O)c3noc(-c4ccc(C)cc4)c23)cc1 .
Return: yes

Enquiry: Please let me know the test result on file for COc1ccc(-c2conc2-c2ccccc2)cc1 .
Return: yes

Enquiry: Please let me know the test result on file for C[C@H](C(=O)Nc1ccc(S(N)(=O)=O)cc1)S(=O)(=O)c1ccccc1 .
Return: no

Enquiry: Please let me know the test result on file for CC(=O)N1CCN(c2ccc(OCC3CO[C@](Cn4ccnc4)(c4ccc(Cl)cc4Cl)O3)cc2)CC1 (stereo not given in full) .
Return: no

Enquiry: Please let me know the test result on file for COc1ccc(-c2cc(-c3ccc(Cl)cc3)c(C#N)c(=O)n2CCCCCC(=O)Nc2ccccc2N)cc1 .
Return: no

Enquiry: Please let me know the test result on file for Cc1cccc2c3c(sc12)C(c1ccc(Cl)cc1)C(C#N)=C(N)O3 (stereo not given) .
Return: yes

Enquiry: Please let me know the test result on file for COc1cc(C(=O)c2cnc(-c3c[nH]c4cccc(C)c34)[nH]2)cc(OC)c1OC .
Return: yes

Enquiry: Please let me know the test result on file for COc1cccc(-c2nn(-c3ccccc3)cc2-c2ccnc(N3CCOCC3)c2)c1 .
Return: no

Enquiry: Please let me know the test result on file for CCCCC[C@H](O)C/C=C1/C(=O)C=C[C@@H]1C/C=C\CCCC(=O)OC .
Return: no

Enquiry: Please let me know the test result on file for Cc1ccc(NC2=C(Cl)C(=O)c3nc(C)ccc3C2=O)cc1 .
Return: yes

Enquiry: Please let me know the test result on file for COc1cc(C2CC(c3ccc(SC)cc3)=NN2C(C)=O)cc(OC)c1OC (stereo not given) .
Return: no

Enquiry: Please let me know the test result on file for Cc1ccc(-c2cnc3sc(C(=O)NCCc4ccccc4)c(C)n23)cc1 .
Return: no

====

Test system: CAKI-1 renal
Assay: NCI-60 one-dose screen, 48 h
Conditions: 10 µM unless noted
This is part of a sample that, as a whole, favours compounds with a hit. Of some 83,000 tested, about 20% had one in any assay. Active and inactive are the calls of the source. How the source made its calls: active means growth percent below 10; inactive means the rest.
The categories you may choose from are true (1) (active), false (0) (inactive)

Enquiry: Please let me know the test result on file for O=c1ccc(N=Nc2ccccc2)ccc1Cl .
Return: false (0)

Enquiry: Please let me know the test result on file for COc1ccc2c(c1)nc(NNC(=O)c1cnccn1)c1cccn12 .
Return: false (0)

Enquiry: Please let me know the test result on file for COc1cc(C2CC(c3ccc(SC)cc3)=NN2C(C)=O)cc(OC)c1OC (stereo unspecified) .
Return: false (0)

Enquiry: Please let me know the test result on file for Cc1cc(O)c(C2=NN(c3ccc(S(N)(=O)=O)cc3)C(/C=C/c3ccccc3)C2)cc1Cl (stereo unspecified) .
Return: false (0)

Enquiry: Please let me know the test result on file for CC1Cc2c(ncn3c(-c4ccc(F)cc4)nnc23)N(C)c2ccccc21 (stereo unspecified) .
Return: false (0)

Enquiry: Please let me know the test result on file for Nc1ccccc1-c1cc2c(c3c1[nH]c1ccccc13)CCCCC2 .
Return: false (0)

Enquiry: Please let me know the test result on file for Nc1nc(-c2cccc3ccccc23)cc2ccccc12 .
Return: false (0)

Enquiry: Please let me know the test result on file for COc1ccc(C2CC(c3ccc(Nc4nc(Nc5ccc(F)cc5)nc(Nc5ccc(Cl)cc5)n4)cc3)=NN2C(C)=O)cc1 (stereo unspecified) .
Return: false (0)

Enquiry: Please let me know the test result on file for COc1ccc(-c2nc3sc(-c4ccccc4)cn3n2)cc1 .
Return: false (0)

Enquiry: Please let me know the test result on file for Cc1cccc2c1S/C(=C/c1ccc([N+](=O)[O-])cc1)C2=O .
Return: false (0)

Enquiry: Please let me know the test result on file for Cc1ccc(-c2nc(SCC(=O)Nc3nc(-c4ccc(Cl)cc4)cs3)[nH]c(=O)c2C#N)cc1 .
Return: false (0)

Enquiry: Please let me know the test result on file for CCOc1c(B(O)O)cccc1-c1nc2ccc3[nH]ncc3c2c2c1CCCC2 .
Return: true (1)

Enquiry: Please let me know the test result on file for CC(=O)OC[C@H]1OC(Sc2sc(C(=O)c3ccc(C)cc3)c(N)c2-c2nc3ccccc3s2)[C@H](OC(C)=O)[C@@H](OC(C)=O)[C@@H]1OC(C)=O (stereo partly specified) .
Return: false (0)

Enquiry: Please let me know the test result on file for NS(=O)(=O)c1ccc(-n2nc(-c3ccc(Cl)cc3)c3ccccc3c2=O)cc1 .
Return: false (0)

Enquiry: Please let me know the test result on file for COC(=O)C(Cc1ccccc1)NC(=O)NC(=O)NC(=O)CI (stereo unspecified) .
Return: true (1)

Enquiry: Please let me know the test result on file for COc1ccc(-c2conc2-c2ccccc2)cc1 .
Return: false (0)

Enquiry: Please let me know the test result on file for COc1ccc(C2C(N)=NNC2c2cccc(O)c2)cc1 (stereo unspecified) .
Return: false (0)

Enquiry: Please let me know the test result on file for Cc1cccc2c3c(sc12)C(c1ccc(Cl)cc1)C(C#N)=C(/N=C/c1ccc(Cl)cc1)O3 (stereo unspecified) .
Return: true (1)

Enquiry: Please let me know the test result on file for O=C1c2cccc3cccc(c23)C(=O)N1Nc1nc(N2CCOCC2)nc(N2CCN(c3ccccc3)CC2)n1 .
Return: false (0)

Enquiry: Please let me know the test result on file for O=c1c2cc(F)ccc2sc2c(NCCCNCCO)nc3ccc(F)cc3c12 .
Return: false (0)

Enquiry: Please let me know the test result on file for COc1ccc(C(=O)C(C)C)c2ccccc12 .
Return: false (0)

Enquiry: Please let me know the test result on file for Nc1nc2ccccc2c2c(=O)c3cc(F)ccc3sc12 .
Return: false (0)

Enquiry: Please let me know the test result on file for C/C(=C(/c1ccccc1)c1ccc(N2C(=O)c3cccc4c(N5CCN(C)CC5)ccc(c34)C2=O)cc1)c1ccccc1 .
Return: false (0)

Enquiry: Please let me know the test result on file for Cc1ccc(-c2nc(N3CCN(CC(=O)Nc4ccc(Cl)cc4)CC3)c3ccccc3n2)cc1 .
Return: false (0)

Enquiry: Please let me know the test result on file for O=C(N/N=C/c1ccc(Cl)cc1)c1ccc(C(F)(F)F)nc1Nc1cccc(C(F)(F)F)c1 .
Return: true (1)

Enquiry: Please let me know the test result on file for COc1ccc2sc3c(NCCCNCCO)nc4ccccc4c3c(=O)c2c1 .
Return: false (0)

Enquiry: Please let me know the test result on file for Cc1cc(O)c(C2=NN(c3ccc(S(N)(=O)=O)cc3)C(c3ccccc3O)C2)cc1Cl (stereo unspecified) .
Return: true (1)

Enquiry: Please let me know the test result on file for Cc1onc2c(-c3ccccc3)n[nH]c(=O)c12 .
Return: false (0)

Enquiry: Please let me know the test result on file for COC(=O)CCC/C=C\C[C@H]1C=CC(=O)/C1=C/C[C@@H](O)CCc1cccc(C(F)(F)F)c1 .
Return: false (0)

Enquiry: Please let me know the test result on file for CCOC(=O)C1=C(N)Oc2c(sc3c(C)cccc23)C1c1ccc(F)cc1 (stereo unspecified) .
Return: true (1)

Enquiry: Please let me know the test result on file for c1ccc(OCc2nnc(-c3ccc(Oc4ccccc4)cc3)o2)cc1 .
Return: false (0)

Enquiry: Please let me know the test result on file for O=C(Nc1c2ccccc2nc2ccccc12)c1ccccc1CN1C(=O)c2ccccc2C1=O .
Return: false (0)

Enquiry: Please let me know the test result on file for Oc1ccc(Cl)cc1Cc1cc(Cl)cc(Cl)c1O .
Return: false (0)

Enquiry: Please let me know the test result on file for COc1cc(/C=C2\C(=O)Nc3ccc(Br)cc32)cc(OC)c1OC .
Return: false (0)

Enquiry: Please let me know the test result on file for O=C(Nc1nc2ccc(F)cc2s1)c1cccnc1Nc1ccc(Cl)cc1Cl .
Return: true (1)

Enquiry: Please let me know the test result on file for CCCCCCn1c(-c2ccc(C(=O)O/N=C(\N)c3ccc(OC)cc3)cc2)nc(-c2ccccc2)c1-c1ccccc1 .
Return: true (1)

Enquiry: Please let me know the test result on file for Cn1cc(-c2cc3ncnc(Nc4ccc(CC(=O)Nc5cc(C(C)(C)C)nn5C)cc4)c3s2)cn1 .
Return: false (0)

Enquiry: Please let me know the test result on file for Fc1cc2c(cc1Cl)N(c1ncnc3ccc(-c4cnc5cnccn45)cc13)CC2 .
Return: false (0)

Enquiry: Please let me know the test result on file for Brc1c[n+](Cc2ccc3ccccc3c2)cn1Cc1ccc2ccccc2c1 .
Return: false (0)

Enquiry: Please let me know the test result on file for OC(COc1ccccc1Cl)CN1CCN(c2cccc(Cl)c2)CC1 (stereo unspecified) .
Return: false (0)

Enquiry: Please let me know the test result on file for COc1cccc(Oc2ccccc2NC(=O)CNC(=O)c2cccc3ccccc23)c1 .
Return: false (0)
